FYI, the data here is from ChEMBL document CHEMBL3046519.

- Tested on: Bacillus subtilis
- TEST_NAME: Antibacterial activity against Bacillus subtilis MTCC 121 at 4 mg/ml after 24 hr by agar well diffusion method
- Format: functional
- CONDITIONS: MTCC 121, 24 h, read-out: DIZ
Recorded zone of inhibition at 4000 µg/mL for the following compounds
# unit: mm | format: bare number

COMPOUND_STRUCTURE_STRING: Cc1ccc(-c2csc(N/N=C/c3cn(-c4ccc(S(N)(=O)=O)cc4)nc3-c3ccc(C)cc3)n2)cc1
SCALE_UNIT: mm
zone of inhibition at 4000 µg/mL: 14

COMPOUND_STRUCTURE_STRING: COc1ccc(-c2nn(-c3ccc(S(N)(=O)=O)cc3)cc2/C=N/NC(N)=S)cc1
SCALE_UNIT: mm
zone of inhibition at 4000 µg/mL: 15

COMPOUND_STRUCTURE_STRING: COc1ccc(-c2nn(-c3ccc(S(N)(=O)=O)cc3)cc2/C=N/Nc2nc(-c3ccc(Cl)cc3)cs2)cc1
SCALE_UNIT: mm
zone of inhibition at 4000 µg/mL: 14.3

COMPOUND_STRUCTURE_STRING: NC(=S)N/N=C/c1cn(-c2ccc(S(N)(=O)=O)cc2)nc1-c1ccccc1
SCALE_UNIT: mm
zone of inhibition at 4000 µg/mL: 19.6

COMPOUND_STRUCTURE_STRING: Cc1ccc(-c2nn(-c3ccc(S(N)(=O)=O)cc3)cc2/C=N/Nc2nc(-c3ccccc3)cs2)cc1
SCALE_UNIT: mm
zone of inhibition at 4000 µg/mL: 13.6

Given the compound NS(=O)(=O)c1ccc(-n2cc(/C=N/Nc3nc(-c4ccc(Cl)cc4)cs3)c(-c3ccc(Cl)cc3)n2)cc1 , what is its reported zone of inhibition at 4000 µg/mL?
15

Given the compound Cc1ccc(-c2csc(N/N=C/c3cn(-c4ccc(S(N)(=O)=O)cc4)nc3-c3ccc(F)cc3)n2)cc1 , what is its reported zone of inhibition at 4000 µg/mL?
14.3

Given the compound COc1ccc(-c2nn(-c3ccc(S(N)(=O)=O)cc3)cc2/C=N/Nc2nc(-c3ccc(C)cc3)cs2)cc1 , what is its reported zone of inhibition at 4000 µg/mL?
17.3

Given the compound Cc1ccc(-c2csc(N/N=C/c3cn(-c4ccc(S(N)(=O)=O)cc4)nc3-c3ccccc3)n2)cc1 , what is its reported zone of inhibition at 4000 µg/mL?
14.6

Given the compound NS(=O)(=O)c1ccc(-n2cc(/C=N/Nc3nc(-c4ccccc4)cs3)c(-c3ccc(Cl)cc3)n2)cc1 , what is its reported zone of inhibition at 4000 µg/mL?
15.6

Given the compound O=C(O)c1cn(C2CC2)c2cc(N3CCNCC3)c(F)cc2c1=O , what is its reported zone of inhibition at 4000 µg/mL?
25.6

Given the compound NS(=O)(=O)c1ccc(-n2cc(/C=N/Nc3nc(-c4ccc(Cl)cc4)cs3)c(-c3ccccc3)n2)cc1 , what is its reported zone of inhibition at 4000 µg/mL?
15.3

Given the compound NC(=S)N/N=C/c1cn(-c2ccc(S(N)(=O)=O)cc2)nc1-c1ccc(Cl)cc1 , what is its reported zone of inhibition at 4000 µg/mL?
13.6

Given the compound NS(=O)(=O)c1ccc(-n2cc(/C=N/Nc3nc(-c4ccc(Cl)cc4)cs3)c(-c3ccc(F)cc3)n2)cc1 , what is its reported zone of inhibition at 4000 µg/mL?
13.3

Given the compound NS(=O)(=O)c1ccc(-n2cc(/C=N/Nc3nc(-c4ccccc4)cs3)c(-c3ccccc3)n2)cc1 , what is its reported zone of inhibition at 4000 µg/mL?
14.6

Given the compound Cc1ccc(-c2nn(-c3ccc(S(N)(=O)=O)cc3)cc2/C=N/NC(N)=S)cc1 , what is its reported zone of inhibition at 4000 µg/mL?
14.3

Given the compound COc1ccc(-c2nn(-c3ccc(S(N)(=O)=O)cc3)cc2/C=N/Nc2nc(-c3ccccc3)cs2)cc1 , what is its reported zone of inhibition at 4000 µg/mL?
15.6
